Test system: Staphylococcus aureus
Assay: Antibacterial activity against Staphylococcus aureus ATCC 29213 by microbroth dilution method
Format: functional
Under this convention, True denotes MIC strictly below 0.2 µg/mL and False denotes MIC at or above 0.2 µg/mL.

input_smiles=O=C1O[C@@H](CO)CN1c1ccc(-c2ccc3c(c2)OCCO3)c(F)c1 category_label=False
input_smiles=CC(=S)NC[C@H]1CN(c2ccc(-c3ccc4c(c3)NC(=O)CO4)c(F)c2)C(=O)O1 category_label=True
input_smiles=Cl.NC[C@H]1CN(c2ccc(-c3ccc4c(c3)NC(=O)CO4)c(F)c2)C(=O)O1 category_label=False
input_smiles=O=C1COc2ccc(-c3ccc(N4C[C@H](CNC(=O)C(F)F)OC4=O)cc3F)cc2N1 category_label=False
input_smiles=O=C1COc2ccc(-c3ccc(N4C[C@H](CO)OC4=O)cc3F)nc2N1 category_label=False
input_smiles=CC1(C)Oc2ccc(-c3ccc(N4C[C@H](CO)OC4=O)cc3F)cc2NC1=O category_label=False
input_smiles=O=C1COc2ccc(-c3ccc(N4C[C@H](CNC(=O)C5CC5)OC4=O)cc3F)cc2N1 category_label=False
input_smiles=O=C1COc2c(cccc2-c2ccc(N3C[C@H](CO)OC3=O)cc2F)N1 category_label=False
input_smiles=Cc1nc2ccc(-c3ccc(N4C[C@H](CO)OC4=O)cc3F)cc2c(=O)[nH]1 category_label=False
input_smiles=O=C1O[C@@H](CO)CN1c1ccc(-c2ccc3oc(=O)[nH]c3c2)c(F)c1 category_label=False
input_smiles=O=C1COc2cccc(-c3ccc(N4C[C@H](CO)OC4=O)cc3F)c2N1 category_label=False
input_smiles=O=C1Cc2ccc(-c3ccc(N4C[C@H](CO)OC4=O)cc3F)cc2N1 category_label=False
input_smiles=O=C1O[C@@H](CO)CN1c1ccc(-c2ccc3c(c2)NC(=O)C2(CC2)O3)c(F)c1 category_label=False
input_smiles=CCC(=O)NC[C@H]1CN(c2ccc(-c3ccc4c(c3)NC(=O)CO4)c(F)c2)C(=O)O1 category_label=False
input_smiles=CS(=O)(=O)NC[C@H]1CN(c2ccc(-c3ccc4c(c3)NC(=O)CO4)c(F)c2)C(=O)O1 category_label=False
input_smiles=Cl.N=C(N)NC[C@H]1CN(c2ccc(-c3ccc4c(c3)NC(=O)CO4)c(F)c2)C(=O)O1 category_label=False
input_smiles=O=C1COc2cc(-c3ccc(N4C[C@H](CO)OC4=O)cc3F)ccc2N1 category_label=False
input_smiles=O=C1O[C@@H](CO)CN1c1ccc(-c2cnc3ccc(=O)[nH]c3c2)c(F)c1 category_label=False
input_smiles=COC(=O)NC[C@H]1CN(c2ccc(-c3ccc4c(c3)NC(=O)CO4)c(F)c2)C(=O)O1 category_label=True
input_smiles=CC(=O)NC[C@H]1CN(c2ccc(-c3ccc4c(c3)NC(=O)CO4)c(F)c2)C(=O)O1 category_label=True
input_smiles=O=C1COc2ccc(-c3ccc(N4C[C@H](CNC(=O)C5CCC5)OC4=O)cc3F)cc2N1 category_label=False
input_smiles=C[C@H]1COc2c(N3CCN(C)CC3)c(F)cc3c(=O)c(C(=O)O)cn1c23.C[C@H]1COc2c(N3CCN(C)CC3)c(F)cc3c(=O)c(C(=O)O)cn1c23.O category_label=True
input_smiles=O=C1CCOc2ccc(-c3ccc(N4C[C@H](CO)OC4=O)cc3F)cc2N1 category_label=True
input_smiles=O=C1NCCOc2ccc(-c3ccc(N4C[C@H](CO)OC4=O)cc3F)cc21 category_label=False
input_smiles=O=C(CO)NC[C@H]1CN(c2ccc(-c3ccc4c(c3)NC(=O)CO4)c(F)c2)C(=O)O1 category_label=False
input_smiles=O=C1COc2ccc(-c3ccc(N4C[C@H](CO)OC4=O)cc3F)cc2N1 category_label=True
